B1: Transitional endoplasmic reticulum ATPase, residues 26 to 106; numbered along this chain, P55072 (parent)
chain: LIVDEAINEDNSVVSLSQPKMDELQLFRGDTVLLKGKKRREAVCIVLSDDTCSDEKIRMNRVVRNNLRVRLGDVISIQPCP

- Variants of: B1
- Assay: abundance fitness (aPCA) (normalised: wild type 0, dead -1); higher = more abundant; growth selection in yeast, the domain comes from the species named
- Measurement Conditions: Homo sapiens
Outcome label depends on abundance fitness relative to -0.8: at/above gives Condition met, below gives Condition not met.

Please indicate if the recorded abundance fitness for V32F meets or exceeds -0.8.
Condition not met

Please indicate if the recorded abundance fitness for N8A meets or exceeds -0.8.
Condition met

Please indicate if the recorded abundance fitness for D49F meets or exceeds -0.8.
Condition not met

Please indicate if the recorded abundance fitness for A6E meets or exceeds -0.8.
Condition met

Please indicate if the recorded abundance fitness for G36S meets or exceeds -0.8.
Condition met

Please indicate if the recorded abundance fitness for N11E meets or exceeds -0.8.
Condition met

Please indicate if the recorded abundance fitness for G72Y meets or exceeds -0.8.
Condition met

Please indicate if the recorded abundance fitness for I75L meets or exceeds -0.8.
Condition met

Please indicate if the recorded abundance fitness for E55A meets or exceeds -0.8.
Condition met

Please indicate if the recorded abundance fitness for I75Y meets or exceeds -0.8.
Condition not met

The measurements presented in this section are drawn from the Human Domainome abundance scans (Beltran et al. 2025).
